Each entry below carries its recorded AC50.
Molecular target: His6-TEV-PPARγ-(234-505) (Homo sapiens)
Construct: The His6-TEV-PPARγ-(234-505) protein for assay was expressed and purified; TEV cleavage site (N); made in house
Sequence (P37231 234-505): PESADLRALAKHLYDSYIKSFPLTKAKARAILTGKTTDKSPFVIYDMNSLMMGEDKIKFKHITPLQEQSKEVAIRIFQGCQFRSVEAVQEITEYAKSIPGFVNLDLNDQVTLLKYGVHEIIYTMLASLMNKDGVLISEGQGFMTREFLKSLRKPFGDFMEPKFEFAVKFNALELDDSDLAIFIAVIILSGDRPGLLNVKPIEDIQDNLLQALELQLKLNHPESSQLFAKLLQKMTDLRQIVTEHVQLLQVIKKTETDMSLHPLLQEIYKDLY
Test: TR-FRET Assay to Measure Co-R Peptide Recruitment to PPARγ
Type: biochemical
Conditions: Co-R peptide (SMRT-ID2) recruitment; top final concentration 20 μM; read-out: TR-FRET i-Ag; AC50
Numeric only. Scale: µM

Some compounds with recorded AC50:
# compound, readout-units, measured
measured = [
    ("COc1cc(-c2cc(C(=O)N3CC[C@H](C(=O)NCc4c(C(F)(F)F)nn(C)c4Cl)CC34CC4)[nH]n2)c(F)cn1", "µM", 0.0037),
    ("COc1cc(-c2cc(C(=O)N3CC[C@H](C(=O)NCc4ncc(N5C[C@H]6C[C@@H]5CN6)cn4)CC34CC4)[nH]n2)c(F)cn1 (mixture of isomers)", "µM", 0.951),
    ("COc1cc(-c2cc(C(=O)N3CC[C@H](C(=O)NC4CCC5CCCN5C4)CC34CC4)n[nH]2)c(F)cn1 (single isomer, unassigned) [Example 376-A]", "µM", 0.897),
    ("COc1cc(-c2cc(C(=O)N3CCC(C(=O)NC4CCOc5ncccc54)CC3)n[nH]2)c(Cl)cn1 (racemic)", "µM", 0.466),
    ("COc1cc(-c2cc(C(=O)N3CC[C@H](C(=O)NCc4cccc5ccnn45)CC34CC4)n[nH]2)c(F)cn1", "µM", 0.0061),
]

Now for a further compound.
Value of measured AC50 for the entry COc1cc(-c2cc(C(=O)N3CC[C@@H](C(=O)NCc4ccc5[nH]nc(F)c5c4)CC34CC4)n[nH]2)c(F)cn1 (single isomer, unassigned) : 0.039

====

biological target: His6-TEV-PPARγ-(234-505) (Homo sapiens, UniProt P37231); construct: The His6-TEV-PPARγ-(234-505) protein for assay was expressed and purified; TEV cleavage site (N); made in house; experiment: TR-FRET Assay to Measure Co-R Peptide Recruitment to PPARγ; type: biochemical; settings: Co-R peptide recruitment to PPARγ; read-out: TR-FRET AC50
Each entry below carries its recorded AC50.

Some compounds with recorded AC50:
# compound, measured
records = [
    ("COc1cc(-c2cc(C(=O)N3CCC(C(=O)NCCn4ccccc4=O)CC3)n[nH]2)c(Cl)cn1", "> 1000 nM"),
    ("O=C(Nc1ccc(Cl)cc1)C1CCN(C(=O)c2cc(-c3ccncc3)[nH]n2)CC1", "> 1000 nM"),
]

Value of measured AC50 for the entry C[C@@H](NC(=O)C1CCN(C(=O)c2cc(-c3ccncc3)[nH]n2)CC1)c1ccccc1 : > 1000 nM

Value of measured AC50 for the entry COc1cc(-c2cc(C(=O)N3CC[C@@H](C(=O)NC4CCS(=N)(=O)CC4)CC34CC4)n[nH]2)c(F)cn1 (stereo partly drawn) : > 1000 nM

Value of measured AC50 for the entry CC(C)(C)Oc1ccc(CNC(=O)C2CCN(C(=O)c3cc(-c4ccncc4)[nH]n3)CC2)cc1 : > 1000 nM

Value of measured AC50 for the entry CN(C)[C@H]1CCN(C(=O)C2CCN(C(=O)c3cc(-c4ccncc4)[nH]n3)CC2)C1 : > 1000 nM

Value of measured AC50 for the entry COc1cc(-c2cc(C(=O)N3CCC(C(=O)N[C@H]4CC[C@@](C)(O)CC4)CC3)n[nH]2)c(Cl)cn1 : > 1000 nM

Value of measured AC50 for the entry O=C(Nc1cccc(Cl)c1)C1CCN(C(=O)c2cc(-c3ccncc3)[nH]n2)CC1 : > 1000 nM

Value of measured AC50 for the entry CC(C)CCNC(=O)C1CCN(C(=O)c2cc(-c3ccncc3)[nH]n2)CC1 : > 1000 nM

Value of measured AC50 for the entry COc1c(Cl)cccc1CNC(=O)C1CCN(C(=O)c2cc(-c3ccncc3)[nH]n2)CC1 : > 1000 nM

Value of measured AC50 for the entry COc1cc(-c2cc(C(=O)N3CC[C@H](C(=O)NC4CCS(=N)(=O)CC4)CC34CC4)n[nH]2)c(F)cn1 (stereo partly drawn) : > 1000 nM

Value of measured AC50 for the entry O=C(NCc1ccc(Cl)cc1)C1CCN(C(=O)c2cc(-c3ccncc3)[nH]n2)CC1 : > 1000 nM

Value of measured AC50 for the entry COc1ccc(OC)c(CNC(=O)C2CCN(C(=O)c3cc(-c4ccncc4)[nH]n3)CC2)c1 : > 1000 nM

Value of measured AC50 for the entry COc1cc(-c2cc(C(=O)N3CCC(C(=O)NCc4ccn5c(C)c(C)nc5c4)CC3)n[nH]2)c(Cl)cn1 : > 1000 nM

Value of measured AC50 for the entry Cc1csc(CNC(=O)C2CCN(C(=O)c3cc(-c4ccncc4)[nH]n3)CC2)c1 : > 1000 nM

Value of measured AC50 for the entry COc1cc(-c2cc(C(=O)N3CCC(C(=O)NCc4ccc5nncn5c4)CC3)n[nH]2)c(Cl)cn1 : > 1000 nM

Value of measured AC50 for the entry COc1cc(-c2cc(C(=O)N3CCC(C(=O)N[C@H]4CCCc5cccnc54)CC3)n[nH]2)c(Cl)cn1 : > 1000 nM

Value of measured AC50 for the entry CCNC(=O)C1CCN(C(=O)c2cc(-c3ccncc3)[nH]n2)CC1 : > 1000 nM

Value of measured AC50 for the entry CN1CCCN(C(=O)C2CCN(C(=O)c3cc(-c4ccncc4)[nH]n3)CC2)CC1 : > 1000 nM

Value of measured AC50 for the entry COc1cc(-c2cc(C(=O)N3CCC(C(=O)NC4CCN(C5CCC5)CC4)CC3)n[nH]2)c(Cl)cn1 : > 1000 nM

Value of measured AC50 for the entry COc1cc(-c2cc(C(=O)N3CCC(C(=O)NCC4OCC4(C)C)CC3)n[nH]2)c(Cl)cn1 (stereo not drawn) : > 1000 nM

Value of measured AC50 for the entry COc1cc(-c2cc(C(=O)N3CCC(C(=O)Nc4ncc(C(C)C)s4)CC3)n[nH]2)c(Cl)cn1 : > 1000 nM

====

molecular target: His6-TEV-PPARγ-(234-505) (Homo sapiens, UniProt P37231); construct: The His6-TEV-PPARγ-(234-505) protein for assay was expressed and purified; TEV cleavage site (N); made in house; assay: TR-FRET Assay to Measure Co-R Peptide Recruitment to PPARγ; assay type: biochemical; details: Co-R peptide (SMRT-ID2) recruitment; top final concentration 20 μM; read-out: TR-FRET i-Ag; AC50
Would you mind sorting the entries by AC50 according to these classes? lower level (below 9 nM), middle level (9 nM to below 100 nM), upper level (100 nM or more)

Solved cases (3 shown):
# compound, group-label
records = [
    ("COc1cc(-c2cc(C(=O)N3CC[C@H](C(=O)NC4CCN(CCF)C(C)(C)C4)CC34CC4)n[nH]2)c(F)cn1 (single isomer, unassigned) [Example 425-B]", "upper level"),
    ("COc1cc(-c2cc(C(=O)N3CCC(C(=O)NC4COCc5ccccc54)CC3)n[nH]2)c(Cl)cn1 (racemic)", "middle level"),
    ("COc1cc(-c2cc(C(=O)N3CC[C@H](C(=O)Nc4cnn5c4OC(C)(C)CC5)CC34CC4)n[nH]2)c(F)cn1", "lower level"),
]

In plain terms, what class is N#Cc1cc(-c2cc(C(=O)N3CCC(C(=O)NC4CCC(O)(C(F)(F)F)CC4)CC34CC4)n[nH]2)ncn1 (single isomer, unassigned) [Example 528-A] ?
upper level

In plain terms, what class is COc1cc(-c2cc(C(=O)N3CC[C@@H](C(=O)NCc4ncc(Cl)cn4)CC34CC4)n[nH]2)c(F)cn1 ?
middle level

In plain terms, what class is COc1cc(-c2cc(C(=O)N3CC[C@H](C(=O)N[C@H]4CC[C@@](O)(C(F)(F)F)CC4)CC34CC4)n[nH]2)c(F)cn1 (single isomer, unassigned) ?
lower level

====

Each entry below carries its recorded AC50.
target: His6-TEV-PPARγ-(234-505) (Homo sapiens); construct: The His6-TEV-PPARγ-(234-505) protein for assay was expressed and purified; TEV cleavage site (N); made in house; experiment: TR-FRET Assay to Measure Co-R Peptide Recruitment to PPARγ; type: biochemical; conditions: Co-R peptide (SMRT-ID2) recruitment; top final concentration 20 μM; read-out: TR-FRET i-Ag; AC50
Numeric only. Scale: nM

Some compounds with recorded AC50:
# compound, AC50, nM
measured = [
    ("COc1cc(-c2cc(C(=O)N3[C@@H]4CC[C@H]3C[C@H](C(=O)NC3CCC5(CC3)OCC5C(F)(F)F)C4)n[nH]2)c(F)cn1 (some centres unmarked)", 340),
    ("COc1cc(-c2cc(C(=O)N3CCC(C(=O)NC4CCC(C)(C)N(C)C4)CC34CC4)n[nH]2)c(F)cn1 (mixture of isomers)", 942),
]

Value of measured AC50 for the entry COc1cc(-c2cc(C(=O)N3CCC(C(=O)NCc4ccc(OC(F)(F)F)cc4)CC3)n[nH]2)c(Cl)cn1 : 608

Value of measured AC50 for the entry COc1cc(-c2cc(C(=O)N3CC[C@H](C(=O)NCc4ncc(F)cc4F)CC34CC4)n[nH]2)c(F)cn1 : 12.6

Value of measured AC50 for the entry COc1cc(-c2cc(C(=O)N3CCC(C(=O)Nc4cccc(C)n4)CC3)n[nH]2)c(Cl)cn1 : 254

Value of measured AC50 for the entry COc1cc(-c2cc(C(=O)N3CCC(C(=O)NCc4cc(C)n(C)n4)CC3)n[nH]2)c(Cl)cn1 : 679

Value of measured AC50 for the entry COc1cc(-c2cc(C(=O)N3CCC(C(=O)NCc4cn5ccccc5n4)CC3)n[nH]2)c(Cl)cn1 : 337

Value of measured AC50 for the entry COc1cc(-c2cc(C(=O)N3CCC(C(=O)NC(C)COc4ccc(Cl)cc4)CC3)n[nH]2)c(Cl)cn1 (centres unmarked) : 904

Value of measured AC50 for the entry COc1cc(-c2cc(C(=O)N3CC[C@H](C(=O)NC4CCC(O)(C(F)(F)F)C(O)C4)CC34CC4)n[nH]2)c(F)cn1 (single isomer, unassigned) [Example 474-D] : 331

Value of measured AC50 for the entry COc1cc(-c2cc(C(=O)N3CCC(C(=O)NC4CCN(c5cccnc5)C4)CC34CC4)n[nH]2)c(F)cn1 (mixture of isomers) : 4.2

Where do the numbers come from? From patent US12606541B2.
